system: SK-BR-3 cells; assay: In vitro cell viability assay (CellTiter-Glo, 6 days); type: cell-based, human; details: Homo sapiens, SK-BR-3, free antifolate drugs, Table 1a
Examples of compounds with documented IC50 follow.
PARAMETER MEASURED: IC50 (nM)

1. Nc1ccc(C(=O)NCCC[C@H](NC(=O)c2ccc(CCc3ccc4nc(N)nc(N)c4c3)cc2)C(=O)O)cc1    3.4
2. Nc1ccc(C(=O)O)c(C(=O)NCCC[C@H](NC(=O)c2ccc(NCc3cnc4nc(N)nc(N)c4n3)cc2)C(=O)O)c1    17
3. [N-]=[N+]=Nc1ccc(C(=O)NCCC[C@H](NC(=O)c2ccc(CCc3cnc4nc(N)nc(N)c4n3)cc2)C(=O)O)cc1    16
4. Nc1ccc(C(=O)O)c(C(=O)NCCC[C@H](NC(=O)c2ccc(CCc3cnc4nc(N)nc(N)c4n3)cc2)C(=O)O)c1    18
5. CN(Cc1cnc2nc(N)nc(N)c2n1)c1ccc(C(=O)N[C@@H](CCCNC(=O)c2ccc(N)cc2)C(=O)O)cc1    17
6. Nc1ccc(C(=O)NCCC[C@H](NC(=O)c2ccc(NCc3cnc4nc(N)nc(N)c4n3)cc2)C(=O)O)c(-c2nn[nH]n2)c1    1.3
7. Nc1ccc(C(=O)NCCC[C@H](NC(=O)c2ccc(NCc3cnc4nc(N)nc(N)c4n3)cc2)C(=O)O)c(C(=O)O)c1    1.9
